tested on: Hep 3B2; experiment: Cytotoxicity against human Hep3B cells assessed as growth inhibition after 48 hrs by MTT assay; type: functional, cell-based
The entries below are paired with their reported IC50.
Value expressed in µM; do not type the unit.

Example compounds with recorded IC50:
[
  {
    "CPD SMILES": "COC(=O)[C@@]1(C)CC(=O)C=C2C1=CC[C@@H](C)[C@]2(C)CC(=O)c1ccoc1",
    "IC50 [µM]": 51.6
  },
  {
    "CPD SMILES": "C[C@H]1C[C@@H]2OC(=O)[C@]3(C)CCCC(=C23)[C@]12C[C@H](c1ccoc1)OC2=O",
    "IC50 [µM]": 42
  }
]

// switching to the query compound
**Q:** Form field: reported IC50 of `O=c1[nH]cc(F)c(=O)[nH]1`
**A:** 49.7
